Test: room-temperature solubility in toluene
Assay type: physicochemical
Conditions: organic solvent or mixture, 1-naphthalene sulfonate counterion
Where a name gives a salt, the structure may show the parent alone.
reported_property: solubility

Req: Sample C=CC[C@@]1(C)C[C@H](c2cccc(Cl)c2)[C@@H](c2ccc(Cl)cc2)[N+]2=C1OC[C@@H]2C(C)C [oxoiminium salt] — what was its solubility?
Resp: < 10000 µg/mL
